Test system: CEM cells HIV-1 protection, formazan growth assay
Assay: NCI AIDS Antiviral Assay
Details: measured here: growth of uninfected CEM cells
Description: The ability of compounds to protect human CEM cells from HIV-1 infection is measured as a screen for new compounds capable of inhibiting the HIV virus. Five concentrations of drug were tested on uninfected and infected cells and cell growth was measured using a soluble formazan assay. […] Compounds that provided at least 50% protection were retested. Compounds that provided at least 50% protection on retest were listed as moderately active. […]
pIC50: −log10 of the molar value.
I'd be grateful if you could share measured pIC50 for these entries.

Take a look at these entries with their results.
MOLECULE: N#CCC(=O)N/N=C(/C(=O)Nc1ccccc1)C1C(=O)N(c2ccccc2)N=C1N (stereo unspecified)
MEASURED TARGET: CEM cells HIV-1 protection, formazan growth assay
pIC50: < 3.77

MOLECULE: CC(C)(C)OC(=O)N1CCC(C(=O)O)CC1
MEASURED TARGET: CEM cells HIV-1 protection, formazan growth assay
pIC50: < 3.70

MOLECULE: CC(CO)(CO)N1C(=O)C2C3C=CC(C3)C2C1=O (stereo unspecified)
MEASURED TARGET: CEM cells HIV-1 protection, formazan growth assay
pIC50: < 3.70

For every record below, what is its pIC50?
1. O=C(Nc1c(Cl)cc([N+](=O)[O-])cc1Cl)C(=O)C(C1OC(=O)c2ccccc21)[N+](=O)[O-] (stereo unspecified)
2. CCOCC(=O)N[C@H]1CCc2cc(OC)c(OC)c(OC)c2-c2ccc(OC)c(=O)cc21
3. O=C(c1cc(O)c(O)c(O)c1)c1ccc(O)c(O)c1O
4. COc1ccc(Cl)cc1NC(=O)Nc1cc(C)ccn1
5. COC(=O)/C(C#N)=C\N1CCNC1=S
6. CC1(C)N=C(N)N=C(N)N1c1ccc(CCCCc2ccc(S(=O)(=O)F)cc2Cl)c(Cl)c1
7. Nc1c2ccccc2nc2nccnc12

Result:
< 4.24
8.46
5.40
< 3.70
< 3.70
5.85
< 4.58

Ask: Read off the recorded pIC50 for CC(C)N(C(=O)C12C3C4C1C1C2C3C41C(=O)N(C(C)C)C(C)C)C(C)C (stereo unspecified)
Result: < 4.14
